# Test system: Rattus norvegicus
# Protocol notes: Anticonvulsant activity in rat at 50 mg/kg, ip measured after 1 hrs by MES test relative to control
# Type: functional
Measure: Activity

>>> observed_measurement("Cc1nc2ccc(Br)cc2c(=O)n1NCC(=O)NNC(N)=S")
"20%"
>>> observed_measurement("Cc1nc2ccc(I)cc2c(=O)n1NCc1nnc(NCC2C(=O)NC(=O)NC2=O)s1")
"60%"
>>> observed_measurement("Cc1nc2c(Br)cc(Br)cc2c(=O)n1NCC(=O)NNC(N)=S")
"20%"
>>> observed_measurement("Cc1nc2ccccc2c(=O)n1NCc1nnc(NCC2C(=O)NC(=O)NC2=O)s1")
"60%"
>>> observed_measurement("Cc1nc2ccc(I)cc2c(=O)n1NCC(=O)NNC(N)=S")
"20%"
>>> observed_measurement("Cc1nc2ccccc2c(=O)n1NCc1nnc(NCC2C(=O)NC(=S)NC2=O)s1")
"60%"
>>> observed_measurement("Cc1nc2ccccc2c(=O)n1NCC(=O)NNC(=S)NCC1C(=O)NC(=S)NC1=O")
"40%"
>>> observed_measurement("Cc1nc2ccc(I)cc2c(=O)n1NCc1nnc(N)s1")
"40%"
>>> observed_measurement("Cc1nc2ccc(I)cc2c(=O)n1NCC(=O)NNC(=S)NCC1C(=O)NC(=O)NC1=O")
"40%"
>>> observed_measurement("Cc1nc2ccc(Br)cc2c(=O)n1NCc1nnc(NCC2C(=O)NC(=S)NC2=O)s1")
"60%"
